test system: A2780; assay: Dose of required to inhibit growth of cisplatin resistant human ovarian carcinoma (A2780 cisR) cell line with compound free controls as measured by the sulforhodamine B growth delay assay; type: functional, cell-based
readout_label: IC50 (nM)
Give bare numbers, in nM.

Q) Look up IC50: C=C1C[C@H]2C=Nc3cc(OCCCOc4cc5c(cc4OC)C(=O)N4CC(=C)C[C@H]4C=N5)c(OC)cc3C(=O)N2C1
A) 0.024

# input for lookup
Q) Suppose we examine the compound COC(=O)CC1=CN2C(=O)c3cc(OC)c(OCCCOc4cc5c(cc4OC)C(=O)N4C=C(CC(=O)OC)C[C@H]4C=N5)cc3N=C[C@@H]2C1 ; what IC50 value has been reported?
A) 58
